experiment: TOX21_p53_BLA_p3_viability: Viability Assessment in the Tox21 HCT-116 p53 Agonism Beta-lactamase Assay, Phase 3 (AID 2283593);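 note: cells exposed to compound for 16 h before reading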
Inconclusive results are not listed. Calls of active or inactive are those of the source. Rule for the calls: active = hit-call score of the fitted dose curve at least 0.9, where 1 is the maximum; inconclusive = response in the unintended direction; inactive = score below 0.9.
measured-attribute: AC50

The following molecules have reported results that may help.
1. Cc1ccc2nc(N)[nH]c(=O)c2c1Sc1ccncc1 ... 3.66 µM (active)
2. O=C(O)[C@H](O)[C@@H](O)[C@H](O[C@@H]1O[C@H](CO)[C@H](O)[C@H](O)[C@H]1O)[C@H](O)CO ... inactive
3. O=[N+]([O-])c1cc(C2CCCCC2)c(O)c([N+](=O)[O-])c1 ... inactive
4. Nc1ccc(S(=O)(=O)O)cc1 ... inactive
5. NNc1nncc2ccccc12 ... inactive
6. CCCCCCCCC(=O)Cl ... inactive

Working through the 4 molecules below one at a time, give AC50 for each.
1. COc1cccc2c1[C@@H]1CN(CCCCn3c(=O)[nH]c4c(sc5ncc(-c6ccccc6)nc54)c3=O)C[C@@H]1CO2
2. COc1cc(C)c(/C=C/C(C)=C/C=C/C(C)=C/C(=O)O)c(C)c1C
3. COc1ccc(S(=O)(=O)Nc2nnc(CC(C)C)s2)cc1
4. COCC(=O)O[C@]1(CCN(C)CCCc2nc3ccccc3[nH]2)CCc2cc(F)ccc2[C@@H]1C(C)C

["inactive", "inactive", "inactive", "10.9 µM (active)"]

Working through the 2 molecules below one at a time, give AC50 for each.
1. CC1(C)N=C(N)N=C(N)N1c1ccc(Cl)cc1
2. C=CC[C@@H]1/C=C(\C)C[C@H](C)C[C@H](OC)[C@H]2O[C@@](O)(C(=O)C(=O)N3CCCC[C@H]3C(=O)O[C@H](/C(C)=C/[C@@H]3CC[C@@H](O)[C@H](OC)C3)[C@H](C)[C@@H](O)CC1=O)[C@H](C)C[C@@H]2OC

1: 13.9 µM (active); 2: inactive

Working through the 4 molecules below one at a time, give AC50 for each.
1. Cc1cccc2cccnc12
2. O=C(O)CONC(=O)c1ccccc1
3. C[C@H](CCC(=O)O)[C@H]1CC[C@H]2[C@@H]3[C@H](O)C[C@@H]4C[C@H](O)CC[C@]4(C)[C@H]3C[C@H](O)[C@]12C
4. Brc1c(NC2=NCCN2)ccc2nccnc12

inactive
inactive
inactive
inactive

---

biological target: Cellular tumor antigen p53 (Homo sapiens) (UniProt P04637); assay: TOX21_p53_BLA_p3_ratio: Tox21 HCT-116 p53 Agonism Beta-lactamase Assay, Ratio, Phase 3 (AID 2283596)
Sequence (P04637 whole entry, looked up): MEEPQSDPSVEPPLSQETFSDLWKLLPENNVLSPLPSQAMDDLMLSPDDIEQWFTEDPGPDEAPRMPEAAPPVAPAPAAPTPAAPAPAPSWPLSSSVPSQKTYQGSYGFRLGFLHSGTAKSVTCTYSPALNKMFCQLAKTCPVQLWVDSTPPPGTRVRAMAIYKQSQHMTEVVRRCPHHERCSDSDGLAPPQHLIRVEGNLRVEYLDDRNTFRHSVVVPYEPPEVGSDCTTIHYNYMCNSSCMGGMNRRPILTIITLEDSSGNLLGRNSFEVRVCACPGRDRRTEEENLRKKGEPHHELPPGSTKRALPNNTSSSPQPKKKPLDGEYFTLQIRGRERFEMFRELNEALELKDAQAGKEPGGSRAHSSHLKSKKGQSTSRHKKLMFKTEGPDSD
Inconclusive results are not listed. Active and inactive are the calls of the source. How the source made its calls: active means hit-call score of the fitted dose curve at least 0.9, where 1 is the maximum; inconclusive means response in the unintended direction; inactive means score below 0.9.
measured-attribute: outcome

1. O[C@@H](CNC[C@H](O)[C@H]1CCc2cc(F)ccc2O1)[C@@H]1CCc2cc(F)ccc2O1 ... inactive
2. NC(=O)C(=O)NN=Cc1ccc([N+](=O)[O-])o1 ... inactive
3. Cc1nc(NS(=O)(=O)c2ccc(N)cc2)nc(C)c1Br ... inactive

---

target: Hepatocyte nuclear factor 3-beta (Homo sapiens); assay: ATG_FoxA2_CIS: Attagene CIS-FACTORIAL HepG2 Assay for human Forkhead box A2 (FOXA2) (AID 2282942); conditions: HepG2 cis-reporter transcription factor activity, 24 h; actives raise or lower the signal
Calls of active or inactive are those of the source. How the source made its calls: active means hit-call score of the fitted dose curve at least 0.9, where 1 is the maximum; inactive means score below 0.9.
I would appreciate it if you answered using one of these outcomes: active, inactive

Some solved entries appear below for comparison.
1. F[B-](F)(F)F ... inactive
2. C=CCOCC(CC)(CO)COCC=C ... inactive
3. COC(=O)[C@]1(C)CCC[C@@]2(C)[C@H]1CC=C1C=C(C(C)C)CC[C@@H]12 ... inactive
4. O=C(O)c1nc(Cl)c(Cl)c(Cl)c1Cl ... inactive
5. COCCCN ... inactive
6. OCCc1ccccn1 ... inactive
7. CC1=C(CC=O)C(C)(C)CCC1 ... inactive
8. CCCCCCCCCCCCCCCCCC[N+](C)(C)C ... active

In the following, a different compound is considered.
Record lookup: outcome of this test for "CCCCCCOC(=O)CCCCCCCC(=O)OCCCCCC" ?
inactive

---

assay: TOX21_p53_BLA_p5_viability: Viability Assessment in the Tox21 HCT-116 p53 Agonism Beta-lactamase Assay, Phase 5 (AID 2283600)
Records with an inconclusive call do not appear. Activity calls are given as the source filed them. How the source made its calls: active means hit-call score of the fitted dose curve at least 0.9, where 1 is the maximum; inconclusive means response in the unintended direction; inactive means score below 0.9.
I would appreciate it if you answered using one of these outcomes: class 1 for active, class 0 for inactive

1) Cc1cc(CC(=O)O)n(C)c1C(=O)c1ccc(Cl)cc1 ... class 0
2) CC1CCCO1 (configuration not stated) ... class 0
3) CCN(CC)CCNC(=O)c1cc(Br)c(N)cc1OC ... class 0
4) C=C1CC2C3CCC4=CC(=O)C=C[C@]4(C)[C@@]3(F)[C@@H](O)C[C@]2(C)[C@@]1(O)C(=O)COC(C)=O (some centres not stated) ... class 0
5) OCCCNc1ccccc1 ... class 0

Record lookup: outcome of this test for "OCCN1CCN(CC/C=C2/c3ccccc3Sc3ccc(C(F)(F)F)cc32)CC1" ?
class 0

Record lookup: outcome of this test for "O=C[C@H](O)[C@@H](O)[C@H](O)[C@H](O)CO" ?
class 0

Record lookup: outcome of this test for "C[C@H](CCC(=O)O)[C@H]1CC[C@H]2[C@@H]3[C@H](O)C[C@@H]4C[C@H](O)CC[C@]4(C)[C@H]3C[C@H](O)[C@]12C" ?
class 0

---

target: Cellular tumor antigen p53 (Homo sapiens); assay: TOX21_p53_BLA_p5_ratio: Tox21 HCT-116 p53 Agonism Beta-lactamase Assay, Ratio, Phase 5 (AID 2283599)
Records with an inconclusive call do not appear. Active and inactive are the calls of the source. Rule for the calls: active = hit-call score of the fitted dose curve at least 0.9, where 1 is the maximum; inconclusive = response in the unintended direction; inactive = score below 0.9.
I would appreciate it if you answered using one of these outcomes: T for active, F for inactive

1. O=C(O)Cc1cn(-c2ccccc2)nc1-c1ccc(Cl)cc1 ... F
2. CNCCS(=O)(=O)O ... F
3. CN1CCN(c2cc3c(nn2)Oc2ccccc2N3C)CC1 ... F

Record lookup: outcome of this test for "CC(C)C[C@@H](NC(=O)[C@@H](O)[C@H](N)Cc1ccccc1)C(=O)O" ?
F

Record lookup: outcome of this test for CN1C(=O)CN2CCc3ccccc3C2c2cc(Cl)ccc21 (stereo unspecified) ?
T

Record lookup: outcome of this test for "OCCN1CCN(CC/C=C2/c3ccccc3Sc3ccc(C(F)(F)F)cc32)CC1" ?
F

Record lookup: outcome of this test for "NC(=O)N[C@@H](CCC(=O)O)C(=O)O" ?
F

Record lookup: outcome of this test for "O=C1OC(=O)c2cc([N+](=O)[O-])ccc21" ?
F

Record lookup: outcome of this test for CC(C(O)c1ccc(O)cc1)N1CCC(Cc2ccccc2)CC1 (stereo unspecified) ?
F

Record lookup: outcome of this test for "CC[C@@]1(O)C(=O)OCc2c1cc1n(c2=O)Cc2cc3c(CN(C)C)c(O)ccc3nc2-1" ?
T

Record lookup: outcome of this test for OCC(S)CS (stereo unspecified) ?
F

---

Target: PGR (gene 5241)
Assay: TOX21_PR_BLA_Followup_Antagonist_ratio: Tox21 HEK293 Progesterone Receptor (PR) Antagonism Beta-lactamase Follow-Up Assay, Ratio (AID 2283934);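 note: PR-UAS-bla HEK293T cells stimulated with 1 nM R5020 agonist for 16 hr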
Procedure: TOX21_PR_BLA_Followup is a secondary assay for specificity for the TOX21_PR_BLA_Agonist assay. To differentiate true PR agonists from cytotoxic substances, this follow up assay is multiplexed with a cell viability assay. The compounds were also tested for auto fluorescence that may interfere with the biological target readout resulting in potential false positives and/or negatives. […]
The source made the active and inactive calls. The calls were made as follows: active = hit-call score of the fitted dose curve at least 0.9, where 1 is the maximum; inconclusive = response in the unintended direction; inactive = score below 0.9.
I would appreciate it if you answered using one of these outcomes: active, inactive

Some solved entries appear below for comparison.
1. CC(=O)OCC(=O)[C@@]1(O)CC[C@H]2[C@@H]3CCC4=CC(=O)C=C[C@]4(C)[C@H]3[C@@H](O)C[C@@]21C ... inactive
2. Oc1ccc(N=Nc2ccccc2)cc1 ... active
3. CC(C)C[C@H](NC(=O)[C@H](CCc1ccccc1)NC(=O)CN1CCOCC1)C(=O)N[C@@H](Cc1ccccc1)C(=O)N[C@@H](CC(C)C)C(=O)[C@@]1(C)CO1 ... active
4. C[C@]12CCC(=O)C=C1C=C[C@@H]1[C@@H]2CC[C@@]2(C)[C@H]1CC[C@@]21CCC(=O)O1 ... inactive
5. COC(=O)C1=C(C)NC(C)=C(C(=O)OCC(C)=O)C1c1ccccc1[N+](=O)[O-] (configuration not stated) ... inactive
6. CC(C)C[C@H](NC(=O)[C@H](Cc1ccccc1)NC(=O)c1cnccn1)B(O)O ... active

In the following, a different compound is considered.
Record lookup: outcome of this test for "C#C[C@]1(O)CC[C@H]2[C@@H]3CCc4cc(OC5CCCC5)ccc4[C@H]3CC[C@@]21C" ?
active
